Compiled literature Ki, tested on DNA-PK (Homo sapiens, UniProt P78527).

Sample CC(CNc1cc(-c2ccc(N3CCN(C)CC3)nc2)ncn1)c1ccccc1OC1COC1 (centres unmarked) ; Ki observed: < 0.03 µM

Sample CNC(=O)c1ccnc2c([C@H](C)CNc3cc(-c4cnc(C)nc4)ncn3)ccc(F)c12 ; Ki observed: < 0.03 µM

Sample C=C(CNc1cc(-c2ccc(C)nc2)ncn1)c1cccc2c(C(=O)NC)ccnc12 ; Ki observed: < 0.03 µM

Sample CC(CNc1cc(-c2cnc3c(cnn3CCO)c2)ncn1)c1ccnc2c1OCCO2 (centres unmarked) ; Ki observed: < 0.03 µM

Sample Cc1ccc(-c2cc(NC[C@@H](C)c3ccnc4c3OCCN4)ncn2)cn1 ; Ki observed: < 0.03 µM

Sample Cc1ccc(-c2cc(NC[C@@H](C)c3cccc4c3ncc3c4c(=O)[nH]n3C)ncn2)cn1 ; Ki observed: < 0.03 µM

Sample CNC(=O)c1c(F)cnc2c([C@H](C)CNc3cc(-c4ccc(CC5CCN(C)CC5)nc4)ncn3)cccc12 ; Ki observed: < 0.03 µM

Sample O=C(O)c1cnc(N[C@H]2CC[C@@H](Nc3cc(N4CCOCC4)cc4nccnc34)CC2)nc1 ; Ki observed: < 0.1 µM

* * *

Compiled literature pKi, tested on DNA-PK (Homo sapiens).
pKi: −log10 of the molar value.

Record excerpt, results attached:
| COMPOUND | RECORDED VALUE |
| --- | --- |
| COc1ccc(CCNc2cc(-c3ccc4ncccc4c3)ncn2)c(OC)c1 | > 7.52 |
| N#Cc1nccc(N[C@H]2CC[C@@H](Oc3cc(N4CCOCC4)cc4nccnc34)CC2)n1 | > 7.00 |
| CNC(=O)c1ccnc2c([C@H](C)CNc3cc(-c4ccc(N[C@@H]5COC[C@H]5O)nc4)ncn3)cccc12 | > 7.52 |
| CCNc1ccc(-c2cc(NC[C@@H](C)c3ccnc4c3OCC4)ncn2)cn1 | > 7.52 |
| Cc1ccc(-c2cc(NCC(C)c3cccc4nsnc34)ncn2)cn1 (stereo not shown) | > 7.52 |
| CC(CNc1cc(-c2cnc3c(cnn3C3CCN(C)CC3)c2)ncn1)c1ccccc1O (stereo not shown) | > 7.52 |
| CNC(=O)c1ccnc2c([C@H](C)CNc3cc(-c4ccc(C5(N)CC5)nc4)ncn3)cccc12 | > 7.52 |
| CNC(=O)c1ccnc2c([C@H](C)CNc3cc(-c4ccc(OCC5CC5)nc4)ncn3)cccc12 | > 7.52 |
| CNC(=O)c1c(F)cnc2c([C@H](C)CNc3cc(-c4cnc(COC)nc4)ncn3)cccc12 | > 7.52 |
| CNC(=O)c1c(-n2ccc(C)n2)cnc2c([C@H](C)CNc3cc(-c4ccc(C)nc4)ncn3)cccc12 | > 7.52 |

Fill in: DNA-PK (Homo sapiens) pKi for Cc1ccc(-c2cc(NC[C@@H](C)c3ccnc4c3OCCC4)ncn2)cn1 = > 7.52

Fill in: DNA-PK (Homo sapiens) pKi for CNC(=O)c1ccnc2c([C@H](C)CNc3cc(-c4cnc(NC5CCN(CC(F)(F)F)CC5)nc4)ncn3)cccc12 = > 7.52

Fill in: DNA-PK (Homo sapiens) pKi for CNC(=O)c1ccnc2c([C@H](C)CNc3cc(-c4cncc(C)c4)ncn3)ccc(F)c12 = > 7.52

Fill in: DNA-PK (Homo sapiens) pKi for CNC(=O)c1ccnc2c([C@H](C)CNc3cc(-c4cncc(-c5nnco5)c4)ncn3)cccc12 = > 7.52

Fill in: DNA-PK (Homo sapiens) pKi for COCc1cc(N[C@H]2CC[C@@H](Oc3cc(N4CCOCC4)cc4nccnc34)CC2)ncn1 = > 7.00

Fill in: DNA-PK (Homo sapiens) pKi for CCNc1ccc(-c2cc(NC[C@@H](C)c3ccnc4cc(C)oc34)ncn2)cn1 = > 7.52

Fill in: DNA-PK (Homo sapiens) pKi for Fc1ccc(N[C@H]2CC[C@@H](Oc3cc(N4CCOCC4)cc4nccnc34)CC2)nn1 = > 7.00

Fill in: DNA-PK (Homo sapiens) pKi for c1cnc(O[C@H]2CC[C@@H](Nc3cc(N4CCOCC4)cc4nccnc34)CC2)nc1 = > 7.00

Fill in: DNA-PK (Homo sapiens) pKi for CNC(=O)c1ccnc2c([C@H](C)CNc3cc(-c4cnc(OC)nc4)ncn3)cccc12 = > 7.52

Fill in: DNA-PK (Homo sapiens) pKi for CNC(=O)c1ccnc2c([C@H](C)CNc3cc(-c4ccc(C(C)O)nc4)ncn3)cccc12 (stereo partly shown) = > 7.52

Fill in: DNA-PK (Homo sapiens) pKi for CCOc1ccc(-c2cc(NCC(C)c3ccc(C(=O)NC)cc3OC)ncn2)cn1 (stereo not shown) = > 7.52

Fill in: DNA-PK (Homo sapiens) pKi for CNC(=O)c1ccnc2c([C@H](C)CNc3cc(-c4ccc(NCC(=O)N(C)C)nc4)ncn3)cccc12 = > 7.52

Fill in: DNA-PK (Homo sapiens) pKi for [2H]c1nc(C)nc([2H])c1-c1cc(NC[C@@H](C)c2cccc3c(C(=O)NC)ccnc23)ncn1 = > 7.52

Fill in: DNA-PK (Homo sapiens) pKi for CNC(=O)c1c(F)cnc2c([C@H](C)CNc3cc(-c4ccc(C#N)nc4)ncn3)cccc12 = > 7.52

Fill in: DNA-PK (Homo sapiens) pKi for CNC(=O)c1c(F)cnc2c([C@H](C)CNc3cc(-c4cnn(C)c4)ncn3)cccc12 = > 7.52

Fill in: DNA-PK (Homo sapiens) pKi for CNC(=O)c1ccc([C@H](C)CNc2cc(-c3ccc(N4CCCC4)nc3)ncn2)c(OC)c1 = > 7.52
